Just for reference, ChEMBL document CHEMBL1150583 is where these values come from.

Assay: Cytotoxicity against human Hs 740.T cells after 6 days by MTT assay
Assay type: functional
Settings: 144 h, read-out: ED50 (the source's name)
Measured EC50 accompanies every entry in the list below.
Express the result in µg/mL but write the number alone.

Solved entries (count: 3):
compound: O=c1c(-c2ccc(O)cc2)coc2cc(O)cc(O)c12 [GENISTEIN]
measurement-label: EC50
value-observed: 4.38
//
compound: CC1(C)C[C@@H](O)[C@]2(C)CC[C@]3(C)C(=CC[C@@H]4[C@@]5(C)CC[C@H](O[C@@H]6O[C@H](C(=O)O)[C@@H](O)[C@H](O)[C@H]6O)[C@@](C)(CO)[C@@H]5CC[C@]43C)[C@@H]2C1
measurement-label: EC50
value-observed: 9.61
//
compound: C[C@@H]1O[C@@H](O[C@H]2[C@H](O[C@H]3[C@H](O[C@H]4CC[C@@]5(C)[C@@H](CC[C@]6(C)[C@@H]5CC=C5[C@@H]7CC(C)(C)C[C@@H](O[C@@H]8O[C@H](CO)[C@@H](O)[C@H](O)[C@H]8O[C@@H]8O[C@@H](C)[C@H](O)[C@@H](O)[C@H]8O)[C@]7(C)CC[C@]56C)[C@]4(C)CO)O[C@H](C(=O)O)[C@@H](O)[C@@H]3O)O[C@H](CO)[C@H](O)[C@@H]2O)[C@H](O)[C@H](O)[C@H]1O
measurement-label: EC50
value-observed: 4.1

EC50 reported for this compound COc1ccc(-c2coc3cc(O[C@@H]4O[C@H](COC(C)=O)[C@@H](O)[C@H](O)[C@H]4OC(C)=O)ccc3c2=O)cc1 : 7.61

###

Measured EC50 accompanies every entry in the list below.
Assay: Cytotoxicity against human Hs 740.T cells after 6 days by MTT assay
Format: functional
Conditions: 144 h, read-out: ED50 (the source's name)
Express the result in µg/mL but write the number alone.

Solved entries (count: 2):
molecule: O=C1c2ccc(O[C@@H]3O[C@H](CO)[C@@H](O)[C@H](O)[C@H]3O)cc2OCC1c1ccc(O)cc1 (some centres undefined) [DIHYDRODAIDZIN]
reading-unit: µg/mL
EC50: 17.4

molecule: O=C1c2c(O)cc(O[C@@H]3O[C@H](CO)[C@@H](O)[C@H](O)[C@H]3O)cc2OCC1c1ccc(O)cc1 (some centres undefined) [DIHYDROGENISTIN]
reading-unit: µg/mL
EC50: 15.1

EC50 reported for this molecule C[C@@H]1O[C@@H](O[C@H]2[C@H](O[C@@H]3CC(C)(C)C[C@H]4C5=CC[C@@H]6[C@@]7(C)CC[C@H](O[C@@H]8O[C@H](C(=O)O)[C@@H](O)[C@H](O)[C@H]8O[C@@H]8O[C@H](CO)[C@H](O)[C@H](O)[C@H]8O[C@@H]8O[C@@H](C)[C@H](O)[C@@H](O)[C@H]8O)[C@@](C)(CO)[C@@H]7CC[C@@]6(C)[C@]5(C)CC[C@@]34C)OC[C@H](O)[C@@H]2O)[C@H](O)[C@H](O)[C@H]1O : 3.53

EC50 reported for this molecule CC1(C)C[C@@H](O)[C@]2(C)CC[C@]3(C)C(=CC[C@@H]4[C@@]5(C)CC[C@H](O[C@@H]6O[C@H](C(=O)O)[C@@H](O)[C@H](O)[C@H]6O[C@@H]6O[C@H](CO)[C@H](O)[C@H](O)[C@H]6O[C@@H]6O[C@H](CO)[C@@H](O)[C@H](O)[C@H]6O)[C@@](C)(CO)[C@@H]5CC[C@]43C)[C@@H]2C1 : 8.97
